tested on: RPMI-8226 leukemia; experiment: NCI-60 one-dose screen, 48 h; conditions: 10 µM unless noted
This is part of a sample that, as a whole, favours compounds with a hit. Of some 83,000 tested, about 20% had one in any assay. The source made the active and inactive calls. Rule for the calls: active = growth percent below 10; inactive = the rest.
Classes used: T = active, F = inactive

MOLECULE: O=C1Nc2ccc(Cl)cc2/C1=N/c1nc(-c2ccc(Cl)cc2)cs1
CLASS_ASSIGNMENT: T
--
MOLECULE: CC(=O)ON1CCCC(P(=O)(OCOC(=O)C(C)(C)C)OCOC(=O)C(C)(C)C)C1=O (stereo not drawn)
CLASS_ASSIGNMENT: T
--
MOLECULE: Cc1ccc2nc3nc4ccc[nH]c4cc3c2c1
CLASS_ASSIGNMENT: F
--
MOLECULE: OCCNc1nc(NCCO)nc(Nc2ccc(C3=NN(c4ccc(Cl)cc4)C(c4ccc(Cl)cc4)C3)cc2)n1 (stereo not drawn)
CLASS_ASSIGNMENT: F
--
MOLECULE: COc1cc(NCC(=O)Nc2cc(Nc3cccc(C(F)(F)F)c3)ncn2)c(Cl)c(OC)c1Cl
CLASS_ASSIGNMENT: F
--
MOLECULE: CCCCc1n(Cc2ccc3ccccc3n2)cc[n+]1Cc1ccc2ccccc2c1
CLASS_ASSIGNMENT: T
--
MOLECULE: O=C(N/N=C/C[C@@H]1[C@@H](/C=C/[C@@H](O)COc2cccc(Cl)c2)[C@H](O)C[C@@H]1O)c1ccncc1
CLASS_ASSIGNMENT: F
--
MOLECULE: CN(C)[C@@H]1C(=O)C(C(N)=O)=C(O)[C@@]2(O)C(=O)C3=C(O)c4c(O)cc(CN5CCc6ccccc6C5)c(Cl)c4C[C@H]3C[C@@H]12
CLASS_ASSIGNMENT: T
--
MOLECULE: C=C1C(=O)O[C@H]2[C@H]1CC/C(COC(=O)/C=C/c1cccnc1)=C\CC[C@@]1(C)O[C@@H]21
CLASS_ASSIGNMENT: T
--
MOLECULE: COc1ccc(/C(=N\O)c2cc(C)c(OC)c(C)c2)cc1O
CLASS_ASSIGNMENT: F
--
MOLECULE: FC(F)(F)c1ccc2c(Nc3cccc(C4CC(c5ccccc5)=NN4c4ccc(Cl)cc4)c3)ccnc2c1 (stereo not drawn)
CLASS_ASSIGNMENT: T
--
MOLECULE: CCOC(=O)c1c(C)nc2c(c1N)/C(=C/c1ccccn1)C(=O)N2Cc1ccccc1
CLASS_ASSIGNMENT: T
--
MOLECULE: C#C[C@@]1(O)[C@@H](CO)O[C@@H](n2cc(-c3ccco3)c3c(N)ncnc32)[C@@H]1O
CLASS_ASSIGNMENT: F
--
MOLECULE: CC(=O)c1ccc(NC(=O)CSc2nnc(-c3cc(-c4ccc(Cl)cc4)nc4ccccc34)o2)cc1
CLASS_ASSIGNMENT: F
--
MOLECULE: C[C@]12CC[C@@H]3c4ccc(O)cc4CC[C@H]3[C@@H]1C[C@H](O)C2
CLASS_ASSIGNMENT: F
--
MOLECULE: CC(=O)c1cc2c(N)c(C(=O)Nc3ccccn3)sc2nc1C
CLASS_ASSIGNMENT: F
--
MOLECULE: O=c1[nH]nc(-c2ccc(Br)cc2)c2sc(NC(=S)Nc3ccc(Cl)cc3)nc12
CLASS_ASSIGNMENT: F
--
MOLECULE: CN1CCN(/C=C2\CC(C(=O)NCc3ccc(Cl)cc3Cl)NC2=O)CC1 (stereo not drawn)
CLASS_ASSIGNMENT: F

Origin of values: PubChem BioAssay (NCI)
